Reported pIC50 is given for each of the following compounds.
# system_under_test: UniProt:P0DTD1
# assay_method_text: biochemical
# experimental_conditions: PLpro enzymatic fluorescence assay; class symbols; read-out: PLpro IC50
pIC50: −log10 of the molar value.

Below are worked cases with known answers.
[
  {
    "chemical_string": "Cc1ccc2c(C3(NC(=O)c4cc(OC[C@@H]5CCN5C)ccc4C)CC3)cc(OCF)cc2n1",
    "pIC50": "> 7.00"
  },
  {
    "chemical_string": "Cc1ccc(OC[C@@H]2CCN2)cc1C(=O)NC1(c2cc(-c3cn[nH]c3)cc3ncccc23)CC1",
    "pIC50": "> 7.00"
  },
  {
    "chemical_string": "Cc1nnc(-c2cc(C3(NC(=O)c4cc(OC[C@@H]5CCN5)ccc4C)CC3)c3cccnc3c2)o1",
    "pIC50": "> 7.00"
  },
  {
    "chemical_string": "Cc1ccc(OC[C@@H]2CCN2C)cc1C(=O)NC1(c2cc(-c3nccs3)cc3ncccc23)CC1",
    "pIC50": "> 7.00"
  }
]

Short answer please: pIC50, UniProt:P0DTD1, entry C=C(C)c1cc(C2(NC(=O)c3cc(OC[C@H](C)NC)ccc3C)CC2)c2cccnc2c1
> 7.00

Consider next the compound Cc1ccc(OC[C@@H]2CCN2)cc1C(=O)NC1(c2cc(-c3ccc(C#N)s3)cc3ncccc23)CC1 in the same way.
> 7.00

Consider next the compound COc1cc(C2(NC(=O)c3cc(O[C@H]4CC[C@@H]5CN(C)CCN5C4)ccc3C)CC2)c2cccnc2c1 in the same way.
> 7.00

Consider next the compound COc1cc(C2(NC(=O)c3cc(OC[C@@H]4CCN4C)ccc3C)CC2)c2ccc(Cl)nc2c1 in the same way.
> 7.00

Consider next the compound Cc1ccc(OC[C@@H]2CCN2C)cc1C(=O)NC1(c2cc(-c3ccnn3C)cc3ncccc23)CC1 in the same way.
> 7.00

Consider next the compound CN[C@H](C)COc1ccc(C)c(C(=O)NC2(c3cc(OC)cc4ncccc34)CC2)c1 in the same way.
> 7.00
